Test system: Bacillus subtilis
Experiment: cleaved RNA product abundance (RNA/gDNA barcode ratio) relative to median wild-type variant (ratio to wild type); higher = more accumulation of the downstream cleavage product
Details: experiment (reporter, strain, medium): exp 4a: truncated aprE reporter, strain BJT201 with 2% xylose (RNase J1 expressed); cleavage site: cggR-gapA (positions -7 to +36 mutated)
Observed property: cleaved RNA product abundance
Simply state the number, no unit and no words.

Field: example entries. Status: answers known.
Entry sequence: ACAGACGAAGGAGCCGCATAGAAGTTATTAAGGGATGAAGAATCCCTCAATATAAATATCTCTCACTTATTTAAA
cleaved RNA product abundance: 0.861
--
Entry sequence: ACAGACGAAGGAGCCGCAAAGAAGTTATTAAGGTATGAATGATCCCTCAATATAAATATCTCTCACTTATTTAAA
cleaved RNA product abundance: 0.0732
--
Entry sequence: ACAGACGAAGGAGCCGCAAAGAAGTTATTAAGGAATGAATAATCCCACAATATAAATATCTCTCACTTATTTAAA
cleaved RNA product abundance: 0.0935
--
Entry sequence: ACAGACGAAGGAGCCGCAAAGTACTTATTAAGGGATGAATAATCCCTCAATATAAATATCTCTCACTTATTTAAA
cleaved RNA product abundance: 0.803
--
Entry sequence: ACAGACGAAGGAGCCGCTAAGTAGTTATTAAGGGATGAATAATCCCTCAATATAAATATCTCTCACTTATTTAAA
cleaved RNA product abundance: 1.27
--
Entry sequence: ACAGACGAAGGAGCCGCAAAGAAGTTATTAAGGGATGAATAATCCTTCAATATAAATATCTCTCACTTATTTAAA
cleaved RNA product abundance: 0.576

**Query** Look up cleaved RNA product abundance for this sequence: "ACAGACGAAGGAGCCGCAAAGAAGTTATTAAGGCTTGAATAATCCCTCAATATAAATATCTCTCACTTATTTAAA"
**Result** 0.11

====

Test system: Bacillus subtilis
Test: cleaved RNA product abundance (RNA/gDNA barcode ratio) relative to median wild-type variant (ratio to wild type); higher = more accumulation of the downstream cleavage product
Details: experiment (reporter, strain, medium): exp 4a: truncated aprE reporter, strain BJT201 with 2% xylose (RNase J1 expressed); cleavage site: cggR-gapA (positions -7 to +36 mutated)
Entry flag: class 1 if cleaved RNA product abundance reaches 0.6; class 0 if it does not.

Entry sequence: ACAGACGAAGGAGCCGCAAAGAAGTTATTAAGGGATGAATAATCCCTCAATATACATATCTCTCACTTATTTAAA
Assigned category: class 1
--
Entry sequence: ACAGACGAAGGAGCCGCAAAGAAGTTATTAAGGGATGAATAATCCCTCAATATAAATATCTCTCACTTATTTAAG
Assigned category: class 1
--
Entry sequence: ACAGACGAAGGAGCCGCAAAGAAGTTATTAAGGTATAAATAATCCCTCAATATAAATGTCTCTCACTTATTTAAA
Assigned category: class 0

**Query** Decide: cleaved RNA product abundance of "ACAGACGAAGGAGCCGCAAAGAGGTTATTAAGTGATGAATAATCCCTCAATATAAATATCTCTCACTTATTTAAA" >= 0.6?
**Result** class 0

**Query** Decide: cleaved RNA product abundance of "ACAGACGAAGGAGCCGCACAGAAGTTATTAAGGGATGAATAATCCCTCAATATAAATATCTCTCACTTATTTAAA" >= 0.6?
**Result** class 1

**Query** Decide: cleaved RNA product abundance of "ACAGACGAAGGAGCCGCAAAGAAGTTATTAAGAGATCAATAATCCCTCAATATAAATATCTCTCACTTATTTAAA" >= 0.6?
**Result** class 0

**Query** Decide: cleaved RNA product abundance of "ACAGACGAAGGAGCCGCAAAGAAGTTAATAAGGGATGAATAATCCCTCAAAATAAATATCTCTCACTTATTTAAA" >= 0.6?
**Result** class 0

====

Test system: Bacillus subtilis
Assay: cleaved RNA product abundance (RNA/gDNA barcode ratio) relative to median wild-type variant (ratio to wild type); higher = more accumulation of the downstream cleavage product
Conditions: experiment (reporter, strain, medium): exp 2b: truncated aprE reporter, strain BJT200; cleavage site: cggR-gapA (positions -7 to +36 mutated)
Entry flag: true if cleaved RNA product abundance reaches 0.1; false if it does not.

Take a look at these entries with their results.
Entry sequence: ACAGACGAAGGAGCCGCAAAGAATTTATTAAGGAATGAATAATCCCTCAATATAAATATCTCTCACTTATTTAAA
Assigned category: false
--
Entry sequence: ACAGACGAAGGAGCCGCAAAGAAGTTATTAAGGGATAAATAATCCCTCACTATAAATATCTCTCACTTATTTAAA
Assigned category: true
--
Entry sequence: ACAGACGAAGGAGCCGCAAAGAAGTTATTAAGGGATTATTAATCCCTCAATATAAATATCTCTCACTTATTTAAA
Assigned category: true

**Query** Decide: cleaved RNA product abundance of "ACAGACGAAGGAGCCGCAAAGTAGTTATTAAGGGATGAATAATCCCTCCATATAAATATCTCTCACTTATTTAAA" >= 0.1?
**Result** true

**Query** Decide: cleaved RNA product abundance of "ACAGACGAAGGAGCCGCAAAGAAGTTATTAAGGGATTAACAATCCCTCAATATAAATATCTCTCACTTATTTAAA" >= 0.1?
**Result** true

**Query** Decide: cleaved RNA product abundance of "ACAGACGAAGGAGCCGCAAAGAAGTTATTAAGGGATGAATAATCACTCAAGATAAATATCTCTCACTTATTTAAA" >= 0.1?
**Result** false

**Query** Decide: cleaved RNA product abundance of "ACAGACGAAGGAGCCGCAAAGAAGTTATTAAGAGATGAATAATACCTCAATATAAATATCTCTCACTTATTTAAA" >= 0.1?
**Result** true

====

Quick reference: cleaved RNA product abundance of the listed items.
System: Bacillus subtilis
Test: cleaved RNA product abundance (RNA/gDNA barcode ratio) relative to median wild-type variant (ratio to wild type); higher = more accumulation of the downstream cleavage product
Settings: experiment (reporter, strain, medium): exp 4a: truncated aprE reporter, strain BJT201 with 2% xylose (RNase J1 expressed); cleavage site: cggR-gapA (positions -7 to +36 mutated)

Entry sequence: ACAGACGAAGGAGCCGCAAAGAAGTTATTAATGGATGAATAATCCCTCAATATAAATAACTCTCACTTATTTAAA
Readout value: 0.23

**Query** Form entry - test system: Bacillus subtilis; read-out: cleaved RNA product abundance; sequence: "ACAGACGAAGGAGCCGCAAAGAAGTTATTAAAGGATCAATAATCCCTCAATATAAATATCTCTCACTTATTTAAA"
**Result** 0.115

**Query** Form entry - test system: Bacillus subtilis; read-out: cleaved RNA product abundance; sequence: "ACAGACGAAGGAGCCGCAAAGAAGTTATTAAGGGATTAATAATCCCTCGATATAAATATCTCTCACTTATTTAAA"
**Result** 0.594

**Query** Form entry - test system: Bacillus subtilis; read-out: cleaved RNA product abundance; sequence: "ACAGACGAAGGAGCCGCAAAGAAGTGATTAAGCGATGAATAATCCCTCAATATAAATATCTCTCACTTATTTAAA"
**Result** 0.131

**Query** Form entry - test system: Bacillus subtilis; read-out: cleaved RNA product abundance; sequence: "ACAGACGAAGGAGCCGCAAAGAAGTTATCAAGGGATTAATAATCCCTCAATATAAATATCTCTCACTTATTTAAA"
**Result** 0.301

**Query** Form entry - test system: Bacillus subtilis; read-out: cleaved RNA product abundance; sequence: "ACAGACGAAGGAGCCGCAAAGAAGTGATTAAGGGATGAATAATACCTCAATATAAATATCTCTCACTTATTTAAA"
**Result** 0.0889

**Query** Form entry - test system: Bacillus subtilis; read-out: cleaved RNA product abundance; sequence: "ACAGACGAAGGAGCCGCAAAGAAGTTATTAACGGATGAATAATCCCGCAATATAAATATCTCTCACTTATTTAAA"
**Result** 0.392

**Query** Form entry - test system: Bacillus subtilis; read-out: cleaved RNA product abundance; sequence: "ACAGACGAAGGAGCCGCAAAGAAGTTATCAAGGGATGAATTATCCCTCAATATAAATATCTCTCACTTATTTAAA"
**Result** 0.25

**Query** Form entry - test system: Bacillus subtilis; read-out: cleaved RNA product abundance; sequence: "ACAGACGAAGGAGCCGCAAAGAAGTTATTAAGGGATGAATAATCCCTCAATACAAATACCTCTCACTTATTTAAA"
**Result** 0.0316

**Query** Form entry - test system: Bacillus subtilis; read-out: cleaved RNA product abundance; sequence: "ACAGACGAAGGAGCCGCAAAGAAGTTATGAAGAGATGAATAATCCCTCAATATAAATATCTCTCACTTATTTAAA"
**Result** 0.0998

**Query** Form entry - test system: Bacillus subtilis; read-out: cleaved RNA product abundance; sequence: "ACAGACGAAGGAGCCGCAAAGAAGTTATTAAGGACTGAATAATCCCTCAATATAAATATCTCTCACTTATTTAAA"
**Result** 0.0888

**Query** Form entry - test system: Bacillus subtilis; read-out: cleaved RNA product abundance; sequence: "ACAGACGAAGGAGCCGCAAAGAAGTTATTAAGGGATGAATAATTCCTCAATATAAATTTCTCTCACTTATTTAAA"
**Result** 0.625

**Query** Form entry - test system: Bacillus subtilis; read-out: cleaved RNA product abundance; sequence: "ACAGACGAAGGAGCCGCAAAGAAGTTATTAAGGGATGAATAATCCCAAAATATAAATATCTCTCACTTATTTAAA"
**Result** 0.31

**Query** Form entry - test system: Bacillus subtilis; read-out: cleaved RNA product abundance; sequence: "ACAGACGAAGGAGCCGCAAAGAAGTTATAAAGGAATGAATAATCCCTCAATATAAATATCTCTCACTTATTTAAA"
**Result** 0.124

**Query** Form entry - test system: Bacillus subtilis; read-out: cleaved RNA product abundance; sequence: "ACAGACGAAGGAGCCGCAAAGAAGTTATTAATGGATGAATAATCCCTCAATATAAATTTCTCTCACTTATTTAAA"
**Result** 0.138
